Target: T1, H. sapiens Rad51 (H. sapiens, UniProt Q06609 1-339)
T1 construct: Expressed in yeast as a two-hybrid fusion; also called human RAD51
T1 sequence: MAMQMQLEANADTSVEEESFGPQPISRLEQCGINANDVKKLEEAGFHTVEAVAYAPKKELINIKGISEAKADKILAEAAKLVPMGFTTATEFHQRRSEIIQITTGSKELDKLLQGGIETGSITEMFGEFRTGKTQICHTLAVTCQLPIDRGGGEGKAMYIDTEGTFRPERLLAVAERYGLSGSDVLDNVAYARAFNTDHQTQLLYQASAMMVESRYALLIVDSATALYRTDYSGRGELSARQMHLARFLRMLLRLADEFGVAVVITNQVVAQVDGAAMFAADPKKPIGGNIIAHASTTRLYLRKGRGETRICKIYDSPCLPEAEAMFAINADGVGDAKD
Test: yeast two-hybrid, human RAD51 mutant
REPORTED ENDPOINT: binding result

BINDER	binding result
Rad51 (S208E; A209D) (enzyme, Human RAD51 mutant tested by Y2H; also called human RAD51 S208E A209D) MAMQMQLEANADTSVEEESFGPQPISRLEQCGINANDVKKLEEAGFHTVEAVAYAPKKELINIKGISEAKADKILAEAAKLVPMGFTTATEFHQRRSEIIQITTGSKELDKLLQGGIETGSITEMFGEFRTGKTQICHTLAVTCQLPIDRGGGEGKAMYIDTEGTFRPERLLAVAERYGLSGSDVLDNVAYARAFNTDHQTQLLYQAEDMMVESRYALLIVDSATALYRTDYSGRGELSARQMHLARFLRMLLRLADEFGVAVVITNQVVAQVDGAAMFAADPKKPIGGNIIAHASTTRLYLRKGRGETRICKIYDSPCLPEAEAMFAINADGVGDAKD	binds
Rad51 (A190L; A192L) (enzyme, Human RAD51 mutant tested by Y2H; also called human RAD51 A190L A192L) MAMQMQLEANADTSVEEESFGPQPISRLEQCGINANDVKKLEEAGFHTVEAVAYAPKKELINIKGISEAKADKILAEAAKLVPMGFTTATEFHQRRSEIIQITTGSKELDKLLQGGIETGSITEMFGEFRTGKTQICHTLAVTCQLPIDRGGGEGKAMYIDTEGTFRPERLLAVAERYGLSGSDVLDNVLYLRAFNTDHQTQLLYQASAMMVESRYALLIVDSATALYRTDYSGRGELSARQMHLARFLRMLLRLADEFGVAVVITNQVVAQVDGAAMFAADPKKPIGGNIIAHASTTRLYLRKGRGETRICKIYDSPCLPEAEAMFAINADGVGDAKD	no binding
Rad51 (S208L; A209E; M210A) (enzyme, Human RAD51 mutant tested by Y2H; also called human RAD51 S208L A209E M210A) MAMQMQLEANADTSVEEESFGPQPISRLEQCGINANDVKKLEEAGFHTVEAVAYAPKKELINIKGISEAKADKILAEAAKLVPMGFTTATEFHQRRSEIIQITTGSKELDKLLQGGIETGSITEMFGEFRTGKTQICHTLAVTCQLPIDRGGGEGKAMYIDTEGTFRPERLLAVAERYGLSGSDVLDNVAYARAFNTDHQTQLLYQALEAMVESRYALLIVDSATALYRTDYSGRGELSARQMHLARFLRMLLRLADEFGVAVVITNQVVAQVDGAAMFAADPKKPIGGNIIAHASTTRLYLRKGRGETRICKIYDSPCLPEAEAMFAINADGVGDAKD	no binding
Rad51 (Q202R, Y205D, Q206A) (enzyme, Human RAD51 mutant tested by Y2H; also called human RAD51 Q202R Y205D Q206A) MAMQMQLEANADTSVEEESFGPQPISRLEQCGINANDVKKLEEAGFHTVEAVAYAPKKELINIKGISEAKADKILAEAAKLVPMGFTTATEFHQRRSEIIQITTGSKELDKLLQGGIETGSITEMFGEFRTGKTQICHTLAVTCQLPIDRGGGEGKAMYIDTEGTFRPERLLAVAERYGLSGSDVLDNVAYARAFNTDHQTRLLDAASAMMVESRYALLIVDSATALYRTDYSGRGELSARQMHLARFLRMLLRLADEFGVAVVITNQVVAQVDGAAMFAADPKKPIGGNIIAHASTTRLYLRKGRGETRICKIYDSPCLPEAEAMFAINADGVGDAKD	binds

Could you now consider this next binder?
response.value for Rad51 (F86E; A89E) (enzyme, Human RAD51 mutant tested by Y2H; also called human RAD51 F86E A89E) MAMQMQLEANADTSVEEESFGPQPISRLEQCGINANDVKKLEEAGFHTVEAVAYAPKKELINIKGISEAKADKILAEAAKLVPMGETTETEFHQRRSEIIQITTGSKELDKLLQGGIETGSITEMFGEFRTGKTQICHTLAVTCQLPIDRGGGEGKAMYIDTEGTFRPERLLAVAERYGLSGSDVLDNVAYARAFNTDHQTQLLYQASAMMVESRYALLIVDSATALYRTDYSGRGELSARQMHLARFLRMLLRLADEFGVAVVITNQVVAQVDGAAMFAADPKKPIGGNIIAHASTTRLYLRKGRGETRICKIYDSPCLPEAEAMFAINADGVGDAKD (field: binding result) = no binding
